Reported DILI positive/negative values follow for various compounds
- System: Hepatotoxicity;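 further: validation set for the Drug Induced Liver Injury Prediction System (DILIps), with DILI calls taken from the observations reported in the O'Brien dataset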
- conditions: Liver
- Description: Drug Induced Liver Injury Prediction System (DILIps) validation dataset; compound DILI positive/negative as observed in O'Brien data
Just the number.

Before answering, review these 2 worked examples.
{"compound": "CCN(CC)Cc1cc(Nc2ccnc3cc(Cl)ccc23)ccc1O.Cl", "DILI positive/negative": 1}
{"compound": "CCCCC1C(=O)N(c2ccccc2)N(c2ccccc2)C1=O [PHENYLBUTAZONE]", "DILI positive/negative": 1}

Task: Supply DILI positive/negative measured with Hepatotoxicity for Cc1ncc(C[n+]2csc(CCO)c2C)c(N)n1 [THIAMINE ION] .
Result: 0

Task: Supply DILI positive/negative measured with Hepatotoxicity for CS(=O)(=O)Nc1ccc([N+](=O)[O-])cc1Oc1ccccc1 [NIMESULIDE] .
Result: 1

Task: Supply DILI positive/negative measured with Hepatotoxicity for Cc1cc(NS(=O)(=O)c2ccc(N)cc2)no1 [SULFAMETHOXAZOLE] .
Result: 1

Task: Supply DILI positive/negative measured with Hepatotoxicity for Cc1ncc(CO)c(CO)c1O [PYRIDOXINE] .
Result: 0
